As shown below, each of these molecules has a reported pIC50 value.
EXPERIMENTAL_SYSTEM: Inactive tyrosine-protein kinase transmembrane receptor ROR1 (Homo sapiens, UniProt Q01973)
Sequence (Q01973 whole entry): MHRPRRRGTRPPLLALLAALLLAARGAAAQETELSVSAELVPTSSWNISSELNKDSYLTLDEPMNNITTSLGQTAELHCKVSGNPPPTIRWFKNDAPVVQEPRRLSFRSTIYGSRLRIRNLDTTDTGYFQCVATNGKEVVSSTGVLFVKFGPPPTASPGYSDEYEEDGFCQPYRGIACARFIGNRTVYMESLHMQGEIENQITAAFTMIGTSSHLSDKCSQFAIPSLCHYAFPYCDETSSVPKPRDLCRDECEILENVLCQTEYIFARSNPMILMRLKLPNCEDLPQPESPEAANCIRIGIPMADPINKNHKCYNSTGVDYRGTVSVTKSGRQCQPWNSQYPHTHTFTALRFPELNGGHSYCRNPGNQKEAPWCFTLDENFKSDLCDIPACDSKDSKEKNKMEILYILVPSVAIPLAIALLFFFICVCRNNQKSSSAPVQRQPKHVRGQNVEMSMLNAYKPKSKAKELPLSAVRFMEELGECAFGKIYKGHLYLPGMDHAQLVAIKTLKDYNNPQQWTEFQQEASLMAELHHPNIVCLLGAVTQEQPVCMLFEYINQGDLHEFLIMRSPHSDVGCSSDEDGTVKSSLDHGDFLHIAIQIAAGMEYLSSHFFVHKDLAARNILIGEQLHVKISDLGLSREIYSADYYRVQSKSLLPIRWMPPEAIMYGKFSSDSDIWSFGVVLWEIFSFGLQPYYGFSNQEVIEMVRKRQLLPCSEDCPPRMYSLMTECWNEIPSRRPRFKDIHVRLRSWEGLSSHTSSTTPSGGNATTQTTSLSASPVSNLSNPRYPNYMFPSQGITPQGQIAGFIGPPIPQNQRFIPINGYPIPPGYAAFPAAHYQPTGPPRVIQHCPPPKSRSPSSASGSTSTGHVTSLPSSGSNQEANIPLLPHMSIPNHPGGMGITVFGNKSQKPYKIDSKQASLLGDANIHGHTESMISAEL
METHOD_NOTES: Binding affinity to human ROR1 expressed in HEK293 cells by cell based assay
pIC50: −log10 of the molar value. Bridge positions count the residues as written; N and C are the ends. Square brackets hold non-standard residues; d marks the D form. Peptide text beside a SMILES is read from it. NMeF = CN[C@@H](Cc1ccccc1)C(=O)O
PARAMETER_MEASURED: pIC50

1. CC(C)C[C@@H]1NC(=O)[C@H](Cc2ccc(O)cc2)NC(=O)[C@H](Cc2ccccc2)NC(=O)CSC[C@@H](C(=O)NCC(N)=O)NC(=O)[C@H](CC(C)C)NC(=O)[C@H](Cc2ccccc2)N(C)C(=O)[C@H](Cc2ccc(O)cc2)NC(=O)[C@H](Cc2c[nH]c3ccccc23)NC(=O)CNC(=O)[C@H](CC(=O)O)NC(=O)[C@H](Cc2ccc(O)cc2)NC(=O)[C@H](C(C)C)NC1=O ({CH2CO}-FYLVYDGWY[NMeF]LCG-NH2; thioether N-12)
7.84
2. CC(C)C[C@@H]1NC(=O)[C@H](Cc2ccc(O)cc2)NC(=O)[C@H](Cc2c[nH]c3ccccc23)NC(=O)CSC[C@@H](C(=O)NCC(N)=O)NC(=O)[C@H](CC(C)C)NC(=O)[C@H](Cc2ccccc2)N(C)C(=O)[C@H](Cc2ccc(O)cc2)NC(=O)[C@H](Cc2c[nH]c3ccccc23)NC(=O)CNC(=O)[C@H](CO)NC(=O)[C@H](Cc2ccc(O)cc2)NC(=O)[C@H](C(C)C)NC1=O ({CH2CO}-WYLVYSGWY[NMeF]LCG-NH2; thioether N-12)
8.66
3. CC(C)C[C@@H]1NC(=O)[C@H](Cc2ccccc2)N(C)C(=O)[C@H](Cc2ccc(O)cc2)NC(=O)[C@H](Cc2c[nH]c3ccccc23)NC(=O)CNC(=O)[C@H](CO)NC(=O)[C@H](Cc2ccc(O)cc2)NC(=O)[C@H](C(C)C)NC(=O)[C@@H]2CCCN2C(=O)[C@H](Cc2ccc(O)cc2)NC(=O)[C@H](Cc2ccccc2)NC(=O)CSC[C@@H](C(=O)NCC(N)=O)NC1=O ({CH2CO}-FYPVYSGWY[NMeF]LCG-NH2; thioether N-12)
8.28

###

EXPERIMENTAL_SYSTEM: Inactive tyrosine-protein kinase transmembrane receptor ROR1 (Homo sapiens)
METHOD_NOTES: Binding affinity to human ROR1 expressed in HEK293 cells by cell based assay
pIC50: −log10 of the molar value. Bridge positions count the residues as written; N and C are the ends. Square brackets hold non-standard residues; d marks the D form. Peptide text beside a SMILES is read from it. NMeF = CN[C@@H](Cc1ccccc1)C(=O)O; Hpg = N[C@H](C(=O)O)c1ccc(O)cc1
PARAMETER_MEASURED: pIC50

1. CC(C)C[C@@H]1NC(=O)[C@H](Cc2ccc(O)cc2)NC(=O)[C@H](Cc2ccccc2)NC(=O)CSC[C@@H](C(=O)NCC(N)=O)NC(=O)[C@H](CC(C)C)NC(=O)[C@H](Cc2ccccc2)N(C)C(=O)[C@H](Cc2ccc(O)cc2)NC(=O)[C@H](Cc2c[nH]c3ccccc23)NC(=O)CNC(=O)[C@H](Cc2ccc(O)cc2)NC(=O)[C@H](Cc2ccc(O)cc2)NC(=O)[C@H](C(C)C)NC1=O ({CH2CO}-FYLVYYGWY[NMeF]LCG-NH2; thioether N-12)
8.07
2. CC(C)C[C@@H]1NC(=O)[C@H](Cc2ccc(O)cc2)NC(=O)[C@H](Cc2ccccc2)NC(=O)CSC[C@@H](C(N)=O)NC(=O)[C@H](CC(C)C)NC(=O)[C@H](Cc2ccccc2)N(C)C(=O)[C@H](Cc2ccc(O)cc2)NC(=O)[C@H](Cc2c[nH]c3ccccc23)NC(=O)CNC(=O)[C@H](CO)NC(=O)[C@H](Cc2ccc(O)cc2)NC(=O)[C@H](C(C)C)NC1=O ({CH2CO}-FYLVYSGWY[NMeF]LC-NH2; thioether N-12)
8.14
3. CC(C)C[C@@H]1NC(=O)[C@H](Cc2ccc(O)cc2)NC(=O)[C@H](Cc2ccccc2)NC(=O)CSC[C@@H](C(=O)NCC(N)=O)NC(=O)[C@H](C(C)C)NC(=O)[C@H](Cc2ccccc2)N(C)C(=O)[C@H](c2ccc(O)cc2)NC(=O)[C@H](Cc2c[nH]c3ccccc23)NC(=O)CNC(=O)[C@H](CC(N)=O)NC(=O)[C@H](Cc2ccc(O)cc2)NC(=O)[C@H](C(C)C)NC1=O ({CH2CO}-FYLVYNGW[Hpg][NMeF]VCG-NH2; thioether N-12)
8.28
4. CC(C)C[C@@H]1NC(=O)[C@H](Cc2ccc(O)cc2)NC(=O)[C@H](Cc2ccccc2)NC(=O)CSC[C@@H](C(=O)NCC(N)=O)NC(=O)[C@H](CC(C)C)NC(=O)[C@H](Cc2ccccc2)N(C)C(=O)[C@H](Cc2ccc(O)cc2)NC(=O)[C@H](Cc2c[nH]c3ccccc23)NC(=O)CNC(=O)[C@H](CO)NC(=O)[C@H](Cc2ccc(O)cc2)NC(=O)[C@H](C)NC1=O ({CH2CO}-FYLAYSGWY[NMeF]LCG-NH2; thioether N-12)
7.91
